biological target: RORγt (Mus musculus, UniProt P51450, T352K); assay: RORγt S2 cell Gal4-luciferase reporter assay; conditions: read-out: Efficacy (%)
Sequence (P51450 with tags, fused parts or gaps T352K): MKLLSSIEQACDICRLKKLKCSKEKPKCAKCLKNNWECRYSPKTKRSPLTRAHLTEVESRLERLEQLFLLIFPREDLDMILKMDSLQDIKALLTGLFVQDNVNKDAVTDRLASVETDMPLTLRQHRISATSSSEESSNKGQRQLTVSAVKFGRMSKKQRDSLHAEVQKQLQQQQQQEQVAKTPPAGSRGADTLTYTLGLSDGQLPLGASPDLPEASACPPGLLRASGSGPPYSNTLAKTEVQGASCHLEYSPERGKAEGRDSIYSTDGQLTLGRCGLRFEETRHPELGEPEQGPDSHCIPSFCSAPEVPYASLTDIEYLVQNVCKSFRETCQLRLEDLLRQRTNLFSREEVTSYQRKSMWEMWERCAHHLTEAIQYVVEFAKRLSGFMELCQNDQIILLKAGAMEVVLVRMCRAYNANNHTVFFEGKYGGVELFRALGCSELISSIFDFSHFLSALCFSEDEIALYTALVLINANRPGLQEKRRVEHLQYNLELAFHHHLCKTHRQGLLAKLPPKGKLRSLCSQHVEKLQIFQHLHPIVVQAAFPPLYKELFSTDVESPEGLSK
testReadout: Emax (%)
Dear colleague, please return just the value in %, with no unit written.

>>> print(df.to_string())
                                   compound  unitssymbol  measurednumber
0  Cc1cc(C)c(O)c(C(CC(=O)N2CCCC(C)C2)c2ccc3c(c2)OCO3)c1 (stereo not shown)            %            48.2
1  COCC1CCCN(C(=O)CC(c2ccc3c(c2)OCO3)c2c(O)cc(OC)cc2OC)C1 (stereo not shown)            %            90.4
2  COc1cc(O)c(C(CC(=O)N2CC(C)CC(C)C2)c2ccc(CN3CCOCC3)cc2)c(OC)c1 (stereo not shown)            %            99.1
3  CC1CCCN(C(=O)CC(c2ccc3c(c2)OCO3)c2ccc(I)cc2O)C1 (stereo not shown)            %            33.2
4  Cc1cccc(O)c1C(CC(=O)N1CCCC(C)C1)c1ccc2c(c1)OCO2 (stereo not shown)            %            43.5
5  COc1cc(OC)c(C(CC(=O)N2CC(C)CC(C)C2)c2ccc3c(c2)OCO3)c(OCC#N)c1 (stereo not shown)            %              90
6  COc1cc(O)c(C(CC(=O)N2CC(C)CC(C)C2)c2ccc(Cl)c(Cl)c2)c(OC)c1 (stereo not shown)            %            97.2
7  COc1cc(OC)c(C(c2ccccc2)C(C)(C)C(=O)N2CC(C)CC(C)C2)c(OC)c1 (stereo not shown)            %            93.8

Next compound, please.
Q: Give the measured Emax of COc1cc(O)c(C(CC(=O)N2CCOCC2)c2ccc3c(c2)OCO3)c(OC)c1 (stereo not shown) .
A: 20.2

###

molecular target: RORγt (Mus musculus, UniProt P51450, T352K); assay: RORγt S2 cell Gal4-luciferase reporter assay; conditions: read-out: Efficacy (%)
Catalogue of Emax values
Dear colleague, please return just the value in %, with no unit written.

Example entries and their recorded answers appear below.
>>> print(df.to_string())
                                   compound  measurednumber
0  COc1cc(O)c(C(CC(=O)N2CCCC(C)C2)c2ccc(C)cc2)c(OC)c1 (centres unmarked)              97
1  CC1CC(C)CN(C(=O)CC(c2ccc3c(c2)OCO3)c2ccc(F)cc2O)C1 (centres unmarked)            97.3
2  COc1cc(O)c(C(CC(=O)N2CC(C)CC(C)C2)c2ccc(OCc3ccccc3)cc2)c(OC)c1 (centres unmarked)            94.6
3  COc1cc(O)c(C(CC(=O)N2CCCC(C)C2)c2ccc(-c3ccccc3)cc2)c(OC)c1 (centres unmarked)              72
4  CC1CCCN(C(=O)CC(c2ccc3c(c2)OCO3)c2c(O)cccc2Cl)C1 (centres unmarked)            27.1
5  COc1cc(O)c(C(CC(=O)N2CCCC(C(C)C)C2)c2ccc3c(c2)OCO3)c(OC)c1 (centres unmarked)             102
6  COc1cc(O)c(C(CC(=O)N2CC(C)CC(C)C2)c2ccc(OC(F)(F)F)cc2)c(OC)c1 (centres unmarked)            94.8
7  CCC1(CC)CCN(C(=O)CC(c2ccc3c(c2)OCO3)c2c(O)cc(OC)cc2OC)C1 (centres unmarked)              89
8  COCOc1cc(OC)cc(OC)c1C(CC(=O)N1CC(C)CC(C)C1)c1ccc2c(c1)OCO2 (centres unmarked)            96.5
9  CCc1ccc(O)c(C(CC(=O)N2CCCC(C)C2)c2ccc3c(c2)OCO3)c1 (centres unmarked)             106

Q: Give the measured Emax of COc1cc(OC)c(C(CC(=O)N2CC(C)CC(C)C2)c2ccc3c(c2)OCO3)c(OCC(N)=O)c1 (centres unmarked) .
A: 98.5

Q: Give the measured Emax of CCN(CC)C(=O)CC(c1ccc2c(c1)OCO2)c1c(O)cc(OC)cc1OC (centres unmarked) .
A: 64.9

Q: Give the measured Emax of COc1cc(O)c(C(CC(=O)N2CCCC(c3nc4ccccc4o3)C2)c2ccc3c(c2)OCO3)c(OC)c1 (centres unmarked) .
A: 90.6

Q: Give the measured Emax of COc1cccc(O)c1C(CC(=O)N1CC(C)CC(C)C1)c1ccc2c(c1)OCO2 (centres unmarked) .
A: 96.5
